# collection of Ki values tested on h5-HT2A receptor (Homo sapiens)
# Sequence (P28223 whole entry): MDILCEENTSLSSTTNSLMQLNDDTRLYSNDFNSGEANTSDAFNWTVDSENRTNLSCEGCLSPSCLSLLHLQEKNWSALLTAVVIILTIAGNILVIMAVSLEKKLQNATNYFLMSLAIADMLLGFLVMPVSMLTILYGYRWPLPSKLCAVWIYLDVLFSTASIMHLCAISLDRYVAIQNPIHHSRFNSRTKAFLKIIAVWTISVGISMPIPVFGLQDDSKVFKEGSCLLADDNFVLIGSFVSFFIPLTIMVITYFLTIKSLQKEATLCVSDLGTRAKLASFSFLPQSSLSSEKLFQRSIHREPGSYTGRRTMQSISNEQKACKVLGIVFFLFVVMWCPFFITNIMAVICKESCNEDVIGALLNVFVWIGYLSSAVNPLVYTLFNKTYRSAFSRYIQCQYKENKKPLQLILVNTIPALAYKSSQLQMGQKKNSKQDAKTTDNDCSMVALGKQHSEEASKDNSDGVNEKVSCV
measured_attribute: Ki (µM)

>  <compound>
C=CCOc1cc(OC)c(CC(C)N)c(OC)c1 (stereo not shown)

>  <system_tested>
h5-HT2A receptor (Homo sapiens)

>  <measured_attribute>
Ki

>  <unit_spec>
µM

>  <numeric_value>
0.075

$$$$
>  <compound>
COc1cc(OCC(F)(F)F)cc(OC)c1CC(C)N (stereo not shown)

>  <system_tested>
h5-HT2A receptor (Homo sapiens)

>  <measured_attribute>
Ki

>  <unit_spec>
µM

>  <numeric_value>
0.57

$$$$
>  <compound>
COc1cc(OCC(F)F)cc(OC)c1CCN

>  <system_tested>
h5-HT2A receptor (Homo sapiens)

>  <measured_attribute>
Ki

>  <unit_spec>
µM

>  <numeric_value>
1.6

$$$$
>  <compound>
COc1cc(OC)c(CCN)c(OC)c1

>  <system_tested>
h5-HT2A receptor (Homo sapiens)

>  <measured_attribute>
Ki

>  <unit_spec>
µM

>  <numeric_value>
0.3

$$$$
